tested.on: NRAS Q61K (Homo sapiens, UniProt P01111+P62937, Q61K)
Sequence (P01111 whole entry Q61K): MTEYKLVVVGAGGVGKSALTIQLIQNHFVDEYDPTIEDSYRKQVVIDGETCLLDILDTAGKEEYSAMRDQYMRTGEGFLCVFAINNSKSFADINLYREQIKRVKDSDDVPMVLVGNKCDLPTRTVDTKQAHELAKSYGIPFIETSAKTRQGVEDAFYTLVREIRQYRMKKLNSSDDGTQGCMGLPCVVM
Sequence (P62937 whole entry): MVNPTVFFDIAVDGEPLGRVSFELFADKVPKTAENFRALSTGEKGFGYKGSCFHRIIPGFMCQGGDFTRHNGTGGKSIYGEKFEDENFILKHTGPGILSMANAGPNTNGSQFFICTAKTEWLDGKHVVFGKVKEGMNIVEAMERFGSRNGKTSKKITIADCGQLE
protocol.description: Disruption of BRAF RBD interaction with Ras (FRET / MOA assay, with Cyclophilin A)
Format: biochemical
condition.context: NRAS Q61K; read-out: NRAS Q61K FRET data IC50
measurement.name: IC50

| compound | measured |
| --- | --- |
| C=CC(=O)N(C)CC1CCN(C(=O)N(C)[C@H](C(=O)N[C@H]2Cc3nc(cs3)-c3ccc4c(c3)c(c(-c3cccnc3[C@H](C)OC)n4CC)CC(C)(C)COC(=O)C3CCCN(N3)C2=O)C(C)C)CC1 (stereo partly drawn) | 10 to 100 nM |
| CCn1c(-c2cnccc2COC)c2c3cc(ccc31)-c1cc(O)cc(c1)C[C@H](NC(=O)[C@H](C(C)C)N(C)C(=O)c1ncco1)C(=O)N1CCC[C@H](N1)C(=O)OCC(C)(C)C2 | 100 to 1000 nM |
| CCn1c(-c2cccnc2[C@H](C)OC)c2c3cc(ccc31)-c1csc(n1)C[C@H](NC(=O)[C@H](C(C)C)N(C)C(=O)N1CC(OC)C1)C(=O)N1CCC[C@H](N1)C(=O)OCC(C)(C)C2 (racemic) | 10 to 100 nM |
| C=CC(=O)N1CC[C@H](C(=O)N(C)[C@H](C(=O)N[C@H]2Cc3cc(O)cc(c3)-c3ccc4c(c3)c(c(-c3cc(C)cnc3[C@H](C)OC)n4CC)CC(C)(C)COC(=O)[C@@H]3CCCN(N3)C2=O)C(C)C)C1 | 100 to 1000 nM |
| CCn1c(-c2cccnc2[C@H](C)OC)c2c3cc(ccc31)-c1csc(n1)C[C@H](NC(=O)[C@H](C(C)C)N(C)C(=O)N1CC([C@H](C)OC)C1)C(=O)N1CCC[C@H](N1)C(=O)OCC(C)(C)C2 (atropisomer, axis not shown) | 10 to 100 nM |
| CCn1c(-c2cnccc2COC)c2c3cc(ccc31)-c1cc(O)cc(c1)C[C@H](NC(=O)[C@H](C(C)C)N1COCC1=O)C(=O)N1CCC[C@H](N1)C(=O)OCC(C)(C)C2 | 100 to 1000 nM |
| CC#CC(=O)N1CC[C@H](C(=O)N(C)[C@H](C(=O)N[C@H]2Cc3nc(cs3)-c3ccc4c(c3)c(c(-c3cccnc3[C@H](C)OC)n4CC)CC(C)(C)COC(=O)[C@@H]3CCCN(N3)C2=O)C(C)C)C1 | 1000 to 10000 nM |
| CCn1c(-c2cccnc2[C@H](C)OC)c2c3cc(ccc31)-c1csc(n1)C[C@H](NC(=O)[C@H](C(C)C)N(C)C(=O)N1CC3(CC(O)C3)C1)C(=O)N1CCC[C@H](N1)C(=O)OCC(C)(C)C2 (atropisomer, axis not shown) | 10 to 100 nM |
| CCn1c(-c2cccnc2[C@H](C)OC)c2c3cc(ccc31)-c1csc(n1)C[C@H](NC(=O)[C@H](C(C)C)N(C)C(=O)N1[C@H](C)CN(C)C[C@H]1C)C(=O)N1CCC[C@H](N1)C(=O)OCC(C)(C)C2 | 100 to 1000 nM |
